Data provenance: patent US20140155334A1

Study target: stripped human Hb (Homo sapiens, UniProt P68871+P69905)
Construct: from tissue; host or cells: human blood (red blood cell hemolysate, gel-filtered on Sephadex G-25 to remove BPG)
Sequence (P68871 2-147 limits assumed): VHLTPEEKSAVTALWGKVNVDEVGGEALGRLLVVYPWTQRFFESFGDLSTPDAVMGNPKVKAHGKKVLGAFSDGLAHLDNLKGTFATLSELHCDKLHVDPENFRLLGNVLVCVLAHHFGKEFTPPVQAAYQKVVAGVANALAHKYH
Sequence (P69905 2-142 limits assumed): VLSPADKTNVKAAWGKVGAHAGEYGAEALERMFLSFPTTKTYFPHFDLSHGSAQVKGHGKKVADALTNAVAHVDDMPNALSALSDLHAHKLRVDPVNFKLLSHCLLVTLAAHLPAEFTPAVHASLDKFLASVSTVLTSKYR
Method summary: Oxygen equilibrium curves of stripped hemoglobin (Hemox Analyzer), P50 shift
Format: biochemical
Measurement context: compound:Hb molar ratio 20:1, TES-saline buffer pH 7.4
Entries and their shift of the Hb oxygenation curves (P50) values follow.
Respond numerically; units are % and should not be typed.

QUERY: Which shift of the Hb oxygenation curves (P50) value belongs to O=P(O)(O)OC[C@H]1O[C@H](OP(=O)(O)O)[C@H](OP(=O)(O)O)[C@@H](OP(=O)(O)O)[C@H]1OP(=O)(O)O [Compound 51, α-galactose pentakisphosphate] ?
RESULT: 449

QUERY: Which shift of the Hb oxygenation curves (P50) value belongs to O=P(O)(O)O[C@H]1O[C@H](CO)[C@@H](OP(=O)(O)O)[C@H](OP(=O)(O)O)[C@H]1OP(=O)(O)O [Compound 29, α-glucose 1,2,3,4-tetrakisphosphate] ?
RESULT: 266

QUERY: Which shift of the Hb oxygenation curves (P50) value belongs to O=P(O)(O)O[C@@H]1O[C@H](CO)[C@@H](OP(=O)(O)O)[C@H](OP(=O)(O)O)[C@H]1OP(=O)(O)O [Compound 30, β-glucose 1,2,3,4-tetrakisphosphate] ?
RESULT: 201

###

Study target: stripped human Hb (Homo sapiens, UniProt P68871+P69905)
Construct: from tissue; host or cells: human blood (red blood cell hemolysate, gel-filtered on Sephadex G-25 to remove BPG)
Method summary: Oxygen equilibrium curves of stripped hemoglobin (Hemox Analyzer), P50 shift
Assay type: biochemical
Measurement context: compound:Hb molar ratio 20:1, TES-saline buffer pH 7.4
Measured metric: relative effectiveness in lowering Hb affinity to oxygen (comparison in words)

{"Compound": "O=P(O)(O)O[C@H]1[C@H](OP(=O)(O)O)[C@@H](OP(=O)(O)O)[C@H](OP(=O)(O)O)[C@@H](OP(=O)(O)O)[C@H]1OP(=O)(O)O [IHP, myo-inositol hexakisphosphate, reference compound]", "Study target": "stripped human Hb (Homo sapiens, UniProt P68871+P69905)", "Obs value": "BPG<ITPP<IHP"}
{"Compound": "O=P1([O-])OC2C3OP(=O)([O-])OP(=O)([O-])OC3C3OP(=O)([O-])OP(=O)([O-])OC3C2OP(=O)([O-])O1.[Na+].[Na+].[Na+].[Na+].[Na+].[Na+] (stereo not drawn) [ITPP, reference compound]", "Study target": "stripped human Hb (Homo sapiens, UniProt P68871+P69905)", "Obs value": "BPG<ITPP<IHP"}
